Source of measurements: patent US9822131B2

biological target: PI3K β (Homo sapiens)
Sequence (P42338 whole entry): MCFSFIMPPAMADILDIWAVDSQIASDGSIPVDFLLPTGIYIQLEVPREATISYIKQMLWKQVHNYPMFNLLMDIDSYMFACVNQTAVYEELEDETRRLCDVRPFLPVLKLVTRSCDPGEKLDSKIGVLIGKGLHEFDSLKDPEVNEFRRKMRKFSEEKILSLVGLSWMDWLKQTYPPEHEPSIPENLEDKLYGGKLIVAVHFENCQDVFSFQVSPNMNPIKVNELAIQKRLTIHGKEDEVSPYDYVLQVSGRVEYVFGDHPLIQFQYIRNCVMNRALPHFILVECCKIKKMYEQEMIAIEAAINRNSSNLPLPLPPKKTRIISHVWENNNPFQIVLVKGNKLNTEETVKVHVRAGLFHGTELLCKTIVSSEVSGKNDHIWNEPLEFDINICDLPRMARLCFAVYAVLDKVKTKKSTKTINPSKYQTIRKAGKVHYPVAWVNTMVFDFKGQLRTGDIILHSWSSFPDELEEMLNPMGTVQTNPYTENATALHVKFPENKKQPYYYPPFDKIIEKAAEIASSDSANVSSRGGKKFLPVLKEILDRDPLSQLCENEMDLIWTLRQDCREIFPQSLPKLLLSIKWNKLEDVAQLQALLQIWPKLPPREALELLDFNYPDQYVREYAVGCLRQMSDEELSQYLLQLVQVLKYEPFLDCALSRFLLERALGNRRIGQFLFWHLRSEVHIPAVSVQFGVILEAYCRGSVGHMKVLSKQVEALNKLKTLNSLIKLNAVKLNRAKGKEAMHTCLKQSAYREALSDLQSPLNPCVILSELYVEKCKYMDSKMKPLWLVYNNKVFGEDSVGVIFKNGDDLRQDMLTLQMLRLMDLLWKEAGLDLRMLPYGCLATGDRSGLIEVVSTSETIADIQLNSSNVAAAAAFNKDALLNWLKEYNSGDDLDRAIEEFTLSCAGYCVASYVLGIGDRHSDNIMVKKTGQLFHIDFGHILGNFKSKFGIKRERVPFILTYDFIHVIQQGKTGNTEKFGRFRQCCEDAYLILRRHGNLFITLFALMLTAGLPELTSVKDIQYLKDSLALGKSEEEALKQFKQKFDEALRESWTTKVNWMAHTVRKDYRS
Sequence (P27986 whole entry partner): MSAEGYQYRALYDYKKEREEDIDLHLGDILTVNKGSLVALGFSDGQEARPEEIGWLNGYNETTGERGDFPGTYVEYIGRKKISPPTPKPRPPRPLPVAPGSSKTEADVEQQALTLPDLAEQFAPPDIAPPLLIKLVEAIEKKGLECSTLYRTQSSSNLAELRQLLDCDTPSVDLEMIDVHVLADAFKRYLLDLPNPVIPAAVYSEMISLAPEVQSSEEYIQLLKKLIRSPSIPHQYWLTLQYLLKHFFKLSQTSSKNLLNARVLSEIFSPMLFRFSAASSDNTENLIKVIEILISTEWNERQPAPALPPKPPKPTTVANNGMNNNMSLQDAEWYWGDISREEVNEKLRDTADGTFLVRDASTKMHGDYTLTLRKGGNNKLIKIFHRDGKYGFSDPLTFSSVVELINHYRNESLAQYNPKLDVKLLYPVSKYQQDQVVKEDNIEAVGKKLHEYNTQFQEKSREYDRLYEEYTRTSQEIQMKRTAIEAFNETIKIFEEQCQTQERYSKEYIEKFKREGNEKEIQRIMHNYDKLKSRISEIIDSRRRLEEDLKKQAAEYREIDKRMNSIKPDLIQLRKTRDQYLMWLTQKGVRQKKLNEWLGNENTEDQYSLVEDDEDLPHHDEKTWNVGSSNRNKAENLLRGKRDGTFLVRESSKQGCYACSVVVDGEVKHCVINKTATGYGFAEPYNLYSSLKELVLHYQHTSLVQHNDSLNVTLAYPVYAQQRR
endpoint_name: IC50

Study these solved cases before continuing.
molecule="Cc1ccnc2cc(Cn3nc(-c4cc(O)cc(F)c4)c4c(N)ncnc43)n(-c3ccccc3F)c(=O)c12 [Compound 231]" endpoint_name=IC50 test_value="> 10 µM"
molecule="Cc1ccccc1-n1c(Cn2nc(-c3cc(O)cc(F)c3)c3c(N)ncnc32)nc2nccc(C)c2c1=O [Compound 200]" endpoint_name=IC50 test_value="> 10 µM"

Fill: IC50 (PI3K β (Homo sapiens)) for this molecule Cc1csc2nc(Cn3nc(-c4cc(O)cc(F)c4)c4c(N)ncnc43)n(-c3ccccc3F)c(=O)c12 [Compound 258]
> 10 µM

Recall the reported IC50 of Cc1ccccc1-n1c(Cn2nc(Br)c3c(N)ncnc32)nc2sc(C)c(C)c2c1=O [Compound 301] when tested on PI3K β (Homo sapiens).
> 10 µM

Using PI3K β (Homo sapiens) as the test system, report measured IC50 of Cc1csc2nc(Cn3nc(Br)c4c(N)ncnc43)n(-c3ccccc3Cl)c(=O)c12 [Compound 286] .
< 10 µM

Identify measured IC50 obtained with PI3K β (Homo sapiens) for Cc1ccccc1-n1c(Cn2nc(Cl)c3c(N)ncnc32)nc2scc(C)c2c1=O [Compound 249] .
> 10 µM

GET IC50 where system = PI3K β (Homo sapiens) and item = Cc1ccccc1-n1c(Cn2nc(C)c3c(N)ncnc32)nc2scc(C)c2c1=O [Compound 246]
> 10 µM

Look up and report measured IC50 (PI3K β (Homo sapiens)) for the following molecule: Cc1ccccc1-n1c(Cn2nc(-c3ccc(O)c(F)c3)c3c(N)ncnc32)cc2nccc(C)c2c1=O [Compound 226]
> 10 µM

Please indicate recorded IC50 of Cc1csc2nc(Cn3nc(-c4cccc(O)c4)c4c(N)ncnc43)n(-c3ccccc3C(F)(F)F)c(=O)c12 [Compound 281] measured with PI3K β (Homo sapiens).
< 10 µM

Report IC50 under test system PI3K β (Homo sapiens) for CCc1ccccc1-n1c(Cn2nc(-c3cccc(O)c3)c3c(N)ncnc32)nc2scc(C)c2c1=O [Compound 290] .
< 10 µM

Give IC50 for this entry on PI3K β (Homo sapiens): Cc1cccnc1-n1c(Cn2nc(Cl)c3c(N)ncnc32)nc2scc(C)c2c1=O [Compound 270]
> 10 µM

Report value only: IC50, PI3K β (Homo sapiens), Cc1csc2nc(Cn3nc(I)c4c(N)ncnc43)n(-c3ccccc3C(C)C)c(=O)c12 [Compound 284]
< 10 µM

# assay system PI3K β (Homo sapiens): give IC50 of CCc1ccccc1-n1c(Cn2nc(Br)c3c(N)ncnc32)nc2scc(C)c2c1=O [Compound 283]
< 10 µM

State the measured IC50 (PI3K β (Homo sapiens)) of Cc1ccccc1-n1c(Cn2nc(-c3ccc(O)c(Cl)c3)c3c(N)ncnc32)nc2scc(C)c2c1=O [Compound 269]
< 10 µM

---

system: Balb/c splenic B cells; assay: B cell activation and proliferation assay (Alamar Blue); format: cell-based; conditions: Mus musculus, read-out: B cell proliferation EC50
pEC50: −log10 of the molar value.
endpoint_name: pEC50

query_smiles=COc1ccccc1-n1c(Cn2nc(-c3cccc(O)c3)c3c(N)ncnc32)nc2scc(C)c2c1=O endpoint_name=pEC50 test_value="> 7.00"
query_smiles=CC(=O)Nc1nc2ccc(-c3nn(Cc4cc5cccc(Cl)c5c(=O)n4C4CC4)c4ncnc(N)c34)cc2s1 endpoint_name=pEC50 test_value="> 7.00"
query_smiles=Cc1csc2nc(Cn3nc(-c4cc(O)cc(F)c4)c4c(N)ncnc43)n(-c3ccccc3F)c(=O)c12 endpoint_name=pEC50 test_value="> 7.00"
query_smiles=Cc1ccccc1-n1c(Cn2nc(Cl)c3c(N)ncnc32)nc2nccc(C)c2c1=O endpoint_name=pEC50 test_value="> 6.00"
query_smiles=Cc1ccccc1-n1c(Cn2nc(C)c3c(N)ncnc32)nc2scc(C)c2c1=O endpoint_name=pEC50 test_value="> 6.00"
query_smiles=Cc1ccccc1-n1c(Cn2nc(C#C[C@H](C)O)c3c(N)ncnc32)cc2cccc(C)c2c1=O endpoint_name=pEC50 test_value="> 6.00"

Indicate its recorded pEC50; the compound in question is Cc1cccc2cc(Cn3nc(-c4cc(O)cc(F)c4)c4c(N)ncnc43)n(C3CC3)c(=O)c12
> 7.00

Please give measured pEC50 of the following entry: Cc1cccnc1-n1c(Cn2nc(Cl)c3c(N)ncnc32)cc2cccc(C)c2c1=O
> 6.00

Please give measured pEC50 of the following entry: Cc1cccc2cc(Cn3nc(-c4ccc(Cl)c(O)c4)c4c(N)ncnc43)n(C3CCCC3)c(=O)c12
> 5.00

Please report pEC50 for the following compound: Cc1cccc2cc(Cn3nc(-c4cccc(O)c4)c4c(N)ncnc43)n(C3CC3)c(=O)c12
> 7.00

Specify measured pEC50 for Cc1cccc2cc(Cn3nc(-c4cccc(O)c4)c4c(N)ncnc43)n(C3CCC3)c(=O)c12 .
> 6.00

Consider the compound Cc1ccccc1-n1c(Cn2nc(-c3cccc(O)c3)c3c(N)ncnc32)nc2c(C)nn(C)c2c1=O and give its recorded pEC50.
> 5.00

Look up and report measured pEC50 for this entry: Cc1cccc2cc(Cn3nc(-c4cc(O)cc(F)c4)c4c(N)ncnc43)n(C3CCOCC3)c(=O)c12
> 7.00

Check the records and state pEC50 for Cc1ccccc1-n1c(Cn2nc(-c3ccc4nc(N)ccc4c3)c3c(N)ncnc32)cc2cccc(C)c2c1=O
> 7.00

Recall and state the measured pEC50 for Cc1cccc2cc(Cn3nc(-c4ccc(O)cc4)c4c(N)ncnc43)n(-c3ccccc3F)c(=O)c12 .
> 6.00

Entry CC(=O)Nc1nc2ccc(-c3nn(Cc4cc5cccc(Cl)c5c(=O)n4C(C)C)c4ncnc(N)c34)cc2s1 needs its pEC50 filled in; supply it.
> 7.00
